test system: SK-MEL-28; experiment: Growth inhibition of human SK-MEL-28 cells; type: functional
measured-metric: GI50 (µM)
# unit: µM | format: bare number

-- ask Query the reported GI50 for SK-MEL-28; item: COc1cc(Cc2c(C)cc(OC)c3[nH]c4ccccc4c23)cc2c1[nH]c1ccccc12
-- reply 8.71

-- ask Can you look up GI50 on SK-MEL-28 for COc1cc(C)cc2c1[nH]c1ccccc12 ?
-- reply 16.2

-- ask Form: Entry = COc1cc(Cn2c3ccccc3c3cc(C)cc(OC)c32)cc2c1[nH]c1ccccc12 | System = SK-MEL-28 | GI50 = ____
-- reply 25.1

-- ask Value wanted: GI50 (SK-MEL-28) of entry Cc1cc2c(cc1O)[nH]c1cc3c(cc12)C=CC(C)(C)O3
-- reply 14.5

-- ask Observed GI50 on SK-MEL-28 for CC1=CC(=O)c2[nH]c3ccccc3c2C1=O , please.
-- reply 4.47

-- ask // map COc1cc(C(=O)O)cc2c1[nH]c1ccccc12 to recorded GI50 (system: SK-MEL-28)
-- reply 25.1

-- ask Recorded GI50 for COc1ccc2c([nH]c3cc(O)c(C)cc32)c1CC=C(C)C with SK-MEL-28, please?
-- reply 25.1

FYI, the data here is from ChEMBL document CHEMBL1142636.
